measured.target: Fuc(a1-2)[GalNAc(a1-3)]Gal(b1-3)GlcNAc(b1-6)GalNAc
assay.comment: glycan array binding signal (z-score within array); higher = stronger binding
experimental.parameters: glycan notation: IUPAC condensed, linker removed
About 410 targets per protein were measured; listed, in parts, are those with the strongest signals and a random draw of the rest.
Documented glycan array binding signal (z-score) across a set of binders
Keep the answer to the number alone.

{"binder": "LF82 (Escherichia coli) (protein) ADWGPCRTASGDPFIFVTSFTKNIQNPTDNVTGQTYPDFYQWALGDKYSGVCECPSPNPTEARPTLYKTESTLAAGHNSTYFKITNNLEVSTRVYIANVGNVQVPFINKSNSQPGRECDQPTFGWTTGSKGQLSLYIAKPFVGEQNIPQTIIVSVFGTKKENVYSSVPISQVLLSGKVTVTQGCELAAGTSLDIDFGEYQAHDFKGRTGQPPQNVQKIQKELTFNCTNISDGVHIYLSLEGTPNAAYPSAISLGNADVGAVIEDGKGNILKPNDSNSLLEMNPGSLYEYVKRKVTTTITAYPVSTTGKLPAAGDYSGVATMHVELDGGGGGGGGGGATTDLGAKGTLKFSLKISQGHHHHHH", "glycan array binding signal (z-score)": 1.19}
{"binder": "AidA (Burkholderia cenocepacia) (protein) MSRVTDVLVSFDTETILKKYPNPSKNPAAPTLIDWRYVYMVTNQDNVISGQAGGELDLKAQVGDLIRWRETSLSLGFENQVVFYKFIGNVGNDLISTPTPRVAEASIPVPNTSKPEVPTCQKVANYYWSSECLKVGRVTYHFQFQIIDRNCQSQGCFSWDPFISIHN", "glycan array binding signal (z-score)": 1.7}
{"binder": "LecB PA14 (Pseudomonas aeruginosa) (protein) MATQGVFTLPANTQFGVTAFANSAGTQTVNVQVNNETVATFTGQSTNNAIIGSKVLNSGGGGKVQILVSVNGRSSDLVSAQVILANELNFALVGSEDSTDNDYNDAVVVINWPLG", "glycan array binding signal (z-score)": -0.191}

Attention now shifts to the item below.
So for CBM40 CPF071 (Clostridium perfringens) (protein) MAHHHHHHVGTGSNDDDDKSPDPMLSSLGEYKDINLESSNASNITYDLEKYKNLDEGTIVVRFNSKDSKIQSLLGISNSKTKNGYFNFYVTNSRVGFELRNQKNEGNTQNGTENLVHMYKDVALNDGDNTVALKIEKNKGYKLFLNGKMIKEVKDTNTKFLNNIENLDSAFIGKTNRYGQSNEYNFKGNIGFMNIYNEPLGDDYLLSKTGETK , the logged glycan array binding signal (z-score) turned out to be 0.171

Origin of the recorded values: the supplement of paper PMC8728848
